Test system: RNA polymerase II Serine 5 phosphorylation in A549 cells overexpressing CDK7 mutant (C312S)
experimental.protocol: Imaging-based cellular RNA PolII Ser5 phosphorylation assay in A549 cells overexpressing CDK7-mutant (C312S)
Type: cell-based, human
assay.setup: Homo sapiens, A549, A549 cells overexpressing CDK7 mutant (C312S); read-out: CDK7_ A549 mutant hCDK7(pIC50) (converted)
reported.metric: IC50

1) C=CC(=O)N1CC(N2CC(c3cc(C)c4c(c3)Nc3ncnc(N5CCS(=O)(=O)CC5)c3CO4)C2)C1 = > 10 µM

query: Return reported IC50; argument: CC#CC(=O)N1CC(N2CC(c3cc(C)c4c(c3)Nc3ncnc(N5CCS(=O)(=O)CC5)c3[C@@H](C)O4)C2)C(C)(C)C1 (mixture of isomers)
result: > 10 µM

query: Let us now turn to C=CC(=O)N1CC(N2CCC(c3ccc4c(c3)Nc3ncnc(C5CCOCC5)c3CO4)CC2)C1
result: > 10 µM
